Data origin, for the record: patent US20070276025A1

target: GSK-3α/β; assay: GSK-3α/β kinase assay (GS-1 peptide, 15 μM ATP); format: biochemical, porcine; details: Table 2, 15 μM ATP; read-out: IC50 GSK-3α/β
pIC50: −log10 of the molar value.
Consider the following molecules and their measured pIC50 readings.

{"columns": ["Query smiles", "Tested system", "pIC50"],
 "data": [
  ["CC(=O)ON=C1C(=C2C(=O)Nc3cc(Br)ccc32)Nc2ccccc21", "GSK-3α/β", 8.00],
  ["CON=C1C(=C2C(=O)Nc3cc(Br)ccc32)Nc2ccccc21", "GSK-3α/β", 7.52]
]}

* * *

biological target: casein kinase 2; test: casein kinase 2 assay; settings: read-out: IC50 casein kinase 2; Table 2, 15 μM ATP
pIC50: −log10 of the molar value.
Reported endpoint: pIC50

{"columns": ["Compound", "Readout qualifier", "Meas value"],
 "data": [
  ["CC(=O)ON=C1C(=C2C(=O)Nc3cc(Br)ccc32)Nc2ccccc21 [8a, 6-Bromoindirubin-3′-acetoxime]", "<", 5.00],
  ["CON=C1C(=C2C(=O)Nc3cc(Br)ccc32)Nc2ccccc21 [9a, 6-Bromoindirubin-3′-methoxime]", "=", 5.05]
]}

* * *

molecular target: erk2 (Homo sapiens, UniProt P28482); test: erk2 kinase assay; settings: read-out: IC50 erk2; Table 2, 15 μM ATP
Sequence (P28482 whole entry, species assumed): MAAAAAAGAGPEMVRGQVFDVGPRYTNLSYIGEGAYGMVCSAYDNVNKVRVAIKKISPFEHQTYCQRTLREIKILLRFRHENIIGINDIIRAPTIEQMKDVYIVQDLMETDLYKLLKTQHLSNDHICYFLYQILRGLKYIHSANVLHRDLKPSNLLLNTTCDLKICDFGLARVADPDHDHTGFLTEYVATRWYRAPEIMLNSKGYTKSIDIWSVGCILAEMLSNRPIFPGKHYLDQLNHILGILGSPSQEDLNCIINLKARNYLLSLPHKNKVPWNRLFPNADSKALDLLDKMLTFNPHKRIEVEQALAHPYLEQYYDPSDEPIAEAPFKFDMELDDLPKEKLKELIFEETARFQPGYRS
Consider the following compounds and their measured IC50 readings.

{"columns": ["Query smiles", "IC50"],
 "data": [
  ["CC(=O)ON=C1C(=C2C(=O)Nc3cc(Br)ccc32)Nc2ccccc21", "> 10 µM"],
  ["CON=C1C(=C2C(=O)Nc3cc(Br)ccc32)Nc2ccccc21", "> 10 µM"]
]}

* * *

target: CDK1/cyclin B; assay: CDK1/cyclin B kinase assay (histone H1, 15 μM ATP); assay type: biochemical, starfish (Marthasterias glacialis); details: Table 5; read-out: IC50 CDK1/cyclin B
// returns Not satisfied unless IC50 is strictly below 4 µM, in which case Satisfied

{"columns": ["Compound", "Class name"],
 "data": [
  ["CN1C(=O)C(=C2Nc3ccccc3C2=NO)c2ccc(Br)cc21 [13c, 6-Bromo-1-methylindirubin-3′-oxime]", "Not satisfied"],
  ["O=C1Nc2cc(Cl)c(Cl)cc2/C1=C1/Nc2ccccc2C1=O [5e, 5,6-Dichloroindirubin]", "Not satisfied"],
  ["CN1C(=O)C(=C2Nc3ccccc3C2=O)c2ccc(Br)cc21 [12c, 6-Bromo-1-methylindirubin]", "Not satisfied"],
  ["CON=C1C(=C2C(=O)Nc3cc(Br)ccc32)Nc2ccccc21 [9a, 6-Bromoindirubin-3′-methoxime]", "Satisfied"],
  ["O=C1Nc2cc(F)ccc2C1=C1Nc2ccccc2C1=NO [7b, 6-Fluoroindirubin-3′-oxime]", "Satisfied"],
  ["CN1C(=O)/C(=C2\\Nc3ccccc3C2=O)c2ccccc21 [12d, 1-Methylindirubin]", "Not satisfied"],
  ["C=Cc1ccc2c(c1)NC(=O)/C2=C1\\Nc2ccccc2C1=O [5i, 6-Vinylindirubin]", "Not satisfied"],
  ["O=C1Nc2cc(Cl)ccc2C1=C1Nc2ccccc2C1=NO [7d, 6-Chloroindirubin-3′-oxime]", "Satisfied"]
]}

* * *

test system: BP8 (AhR −/−) hepatoma cells; test: Cell viability MTT assay, BP8 cells; type: cell-based, mouse; settings: range of concentrations, 24 and 48 hr

{"columns": ["Compound", "survival of BP8 cells (MTT)"],
 "data": [
  ["CN1C(=O)C(=C2Nc3ccccc3C2=NO)c2ccccc21 [13d, 1-Methylindirubin-3′-oxime]", "apparently not affected"],
  ["CN1C(=O)C(=C2Nc3ccccc3C2=NO)c2ccc(Br)cc21 [13c, 6-Bromo-1-methylindirubin-3′-oxime]", "apparently not affected"]
]}

* * *

target: CDK1/cyclin B; test: CDK1/cyclin B kinase assay (histone H1, 15 μM ATP); format: biochemical, starfish (Marthasterias glacialis); conditions: Table 5; read-out: IC50 CDK1/cyclin B
Consider the following compounds and their measured log10 IC50 readings.
Reported endpoint: log10 IC50 (log10 of the value in µM)

{"columns": ["Compound", "Reported endpoint", "Meas value"],
 "data": [
  ["CC(=O)ON=C1C(=C2C(=O)Nc3cc(Br)c(C)cc32)Nc2ccccc21 [8f, 6-Bromo-5-methylindirubin-3′-acetoxime]", "log10 IC50", 1.49],
  ["CC(=O)ON=C1C(=C2C(=O)Nc3cc(Cl)c(Cl)cc32)Nc2ccccc21 [8e, 5,6Dichloroindirubin-3′-acetoxime]", "log10 IC50", 1.48],
  ["CN1C(=O)C(=C2Nc3ccccc3C2=NO)c2ccccc21 [13d, 1-Methylindirubin-3′-oxime]", "log10 IC50", 1.86],
  ["CC(=O)O/N=C1/C(=C2/C(=O)Nc3cc(I)ccc32)Nc2ccccc21 [8c, 6-Iodoindirubin-3′-acetoxime]", "log10 IC50", 0.34],
  ["C=Cc1ccc2c(c1)NC(=O)C2=C1Nc2ccccc2C1=NOC(C)=O [8i, 6-vinylindirubin-3′-acetoxime]", "log10 IC50", 0.20],
  ["CC(=O)O/N=C1/C(=C2/C(=O)Nc3cc(Cl)ccc32)Nc2ccccc21 [8d, 6-Chloroindirubin-3′-acetoxime]", "log10 IC50", 1.48]
]}

* * *

molecular target: protein kinase C β1 (Homo sapiens); experiment: protein kinase C β1 assay; details: read-out: IC50 protein kinase C β1; Table 2, 15 μM ATP
Sequence (P05771 whole entry): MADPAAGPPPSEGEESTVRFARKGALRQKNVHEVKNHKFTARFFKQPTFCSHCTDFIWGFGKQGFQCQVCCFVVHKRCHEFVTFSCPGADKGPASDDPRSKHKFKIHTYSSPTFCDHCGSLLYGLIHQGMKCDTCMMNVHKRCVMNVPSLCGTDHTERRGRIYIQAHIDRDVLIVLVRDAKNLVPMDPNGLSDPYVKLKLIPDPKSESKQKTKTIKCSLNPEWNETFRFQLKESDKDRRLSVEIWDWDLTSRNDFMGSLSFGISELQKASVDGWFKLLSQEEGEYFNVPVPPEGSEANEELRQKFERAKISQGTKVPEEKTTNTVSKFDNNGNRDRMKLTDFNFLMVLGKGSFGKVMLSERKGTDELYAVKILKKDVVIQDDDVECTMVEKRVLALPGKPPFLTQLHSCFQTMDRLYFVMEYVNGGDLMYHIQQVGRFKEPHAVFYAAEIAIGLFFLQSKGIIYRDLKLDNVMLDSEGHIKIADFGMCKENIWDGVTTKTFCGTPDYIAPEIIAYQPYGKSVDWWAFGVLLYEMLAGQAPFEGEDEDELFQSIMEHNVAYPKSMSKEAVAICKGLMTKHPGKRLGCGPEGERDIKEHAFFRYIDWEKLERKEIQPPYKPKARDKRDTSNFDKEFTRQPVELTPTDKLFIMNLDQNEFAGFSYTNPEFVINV
Reported endpoint: IC50

{"columns": ["Query smiles", "Tested system", "Meas value"],
 "data": [
  ["CON=C1C(=C2C(=O)Nc3cc(Br)ccc32)Nc2ccccc21", "protein kinase C β1 (Homo sapiens)", "> 10 µM"],
  ["CC(=O)ON=C1C(=C2C(=O)Nc3cc(Br)ccc32)Nc2ccccc21", "protein kinase C β1 (Homo sapiens)", "> 10 µM"]
]}

* * *

Consider the following molecules and their measured pEC50 readings.
target: AhR (Mus musculus, UniProt P30561); details: read-out: EC50 AhR (hepatoma cell line); Table 4; EGFP at 24 hours
pEC50: −log10 of the molar value.

{"columns": ["Molecule", "Readout qualifier", "pEC50"],
 "data": [
  ["O=C1Nc2ccc(Br)cc2/C1=C1/Nc2ccc(Br)cc2C1=O [compound 21, 5,5′-dibromo-indirubin, reference compound]", "=", 7.33],
  ["CN1C(=O)C(=C2Nc3ccccc3C2=NO)c2ccccc21 [13d, 1-Methylindirubin-3′-oxime]", "=", 6.89],
  ["O=C1Nc2ccc(I)cc2/C1=C1/Nc2ccccc2/C1=N\\O [compound 19, 5-iodo-indirubin-3′-oxime, reference compound]", "=", 8.30],
  ["O=C1Nc2ccccc2/C1=C1/Nc2ccc(Br)cc2C1=O [compound 20, 5′-bromo-indirubin, reference compound]", "=", 7.29],
  ["CON=C1C(=C2C(=O)Nc3cc(Br)ccc32)Nc2ccccc21 [9a, 6-Bromoindirubin-3′-methoxime]", "=", 7.52],
  ["O=C1Nc2ccc(Cl)cc2/C1=C1/Nc2ccccc2C1=O [compound 17, 5-chloro-indirubin, reference compound]", "=", 7.28],
  ["O=C1Nc2cccc(Cl)c2/C1=C1/Nc2ccccc2C1=O [compound 6, 4-Chloroindirubin]", "=", 6.51],
  ["O=C1Nc2ccccc2/C1=C1/Nc2cc(Br)ccc2C1=O [12a, 6′-Bromoindirubin]", "=", 5.92],
  ["O=C1Nc2cc(I)ccc2/C1=C1/Nc2ccccc2C1=O [5c, 6-Iodoindirubin]", "=", 7.77],
  ["Cc1ccc2c(c1)/C(=C1/Nc3ccccc3C1=O)C(=O)N2 [compound 15, 5-methyl-indirubin, reference compound]", "=", 7.60],
  ["CN1C(=O)/C(=C2\\Nc3ccccc3C2=O)c2ccccc21 [12d, 1-Methylindirubin]", "=", 6.08],
  ["O=C1Nc2ccccc2/C1=C1/Nc2ccccc2/C1=N\\O [7h, indirubin-3′-oxime]", "=", 6.14],
  ["O=C1Nc2cc(I)ccc2C1=C1Nc2ccccc2C1=NO [7c, 6-Iodoindirubin-3′-oxime]", "=", 6.36],
  ["O=C1Nc2ccc(Br)cc2/C1=C1/Nc2ccccc2C1=O [compound 16, 5-bromo-indirubin, reference compound]", "=", 8.15],
  ["CC(=O)ON=C1C(=C2C(=O)Nc3cc(Br)ccc32)Nc2ccccc21 [8a, 6-Bromoindirubin-3′-acetoxime]", "=", 6.80],
  ["CN1C(=O)C(=C2Nc3ccccc3C2=NO)c2ccc(Br)cc21 [13c, 6-Bromo-1-methylindirubin-3′-oxime]", "=", 7.03],
  ["O=C1Nc2ccccc2/C1=C1/Nc2ccccc2C1=O [5h, indirubin]", "=", 7.23],
  ["CN1C(=O)C(=C2Nc3ccccc3C2=O)c2ccc(Br)cc21 [12c, 6-Bromo-1-methylindirubin]", "=", 7.30],
  ["Clc1cc2c(cc1Cl)Oc1cc(Cl)c(Cl)cc1O2 [compound 25, 2,3,7,8-tetrachlorodibenzo-p-dioxin, reference compound]", "=", 10.82],
  ["O=C1Nc2cc(Br)ccc2C1=C1Nc2ccccc2C1=O [5a, 6-Bromoindirubin]", "=", 8.10],
  ["O=C1Nc2cc(Br)ccc2/C1=C1/Nc2cc(Br)ccc2C1=O [12b, 6,6′-Dibromoindirubin]", "<", 5.00],
  ["O=C1Nc2cc(Cl)ccc2C1=C1Nc2ccccc2C1=NO [7d, 6-Chloroindirubin-3′-oxime]", "=", 6.70]
]}
